Values from paper PMC11678797

assay: Pharmacokinetics of omacetaxine in orthotopic glioblastoma PDX and naïve NOD/SCID mice (LC-MS/MS of plasma, brain, liver); format: in vivo, mouse; settings: female, NOD/SCID, mouse, brain, right hemisphere (tumor bearing), sc, 1.5 mg/kg, GS832-PDX, 120 min, single s.c. dose 1.5 mg/kg, n = 5; read-out: [Brain] ± SD, right hemisphere (tumor bearing)
measurementLabel: concentration at 120 min (ng/g)
Response body: numeric value in ng/g, unit text excluded.

IN: Note concentration at 120 min for the compound shown: COC(=O)C[C@](O)(CCCC(C)(C)O)C(=O)O[C@@H]1C(OC)=C[C@]23CCCN2CCc2cc4c(cc2[C@H]13)OCO4 [OMA, Omacetaxine mepesuccinate]
OUT: 20.8

----------
assay: Pharmacokinetics of omacetaxine in orthotopic glioblastoma PDX and naïve NOD/SCID mice (LC-MS/MS of plasma, brain, liver); assay type: in vivo, mouse; conditions: female, NOD/SCID, mouse, brain, sc, 1.5 mg/kg, GS832-PDX, 120 min, single s.c. dose 1.5 mg/kg; read-out: [Brain]/[Plasma] Ratio ± SD
measurementLabel: Kp at 120 min

IN: Note Kp at 120 min for the compound shown: COC(=O)C[C@](O)(CCCC(C)(C)O)C(=O)O[C@@H]1C(OC)=C[C@]23CCCN2CCc2cc4c(cc2[C@H]13)OCO4 [OMA, Omacetaxine mepesuccinate]
OUT: 0.37

----------
assay: Pharmacokinetics of omacetaxine in orthotopic glioblastoma PDX and naïve NOD/SCID mice (LC-MS/MS of plasma, brain, liver); assay type: in vivo, mouse; settings: female, NOD/SCID, mouse, plasma, sc, 1.5 mg/kg, naïve non-tumor-bearing mice, 60 min, single s.c. dose 1.5 mg/kg, n = 2; read-out: [Plasma] ± SD
measurementLabel: concentration at 60 min (ng/mL)
Response body: numeric value in ng/mL, unit text excluded.

IN: Note concentration at 60 min for the compound shown: COC(=O)C[C@](O)(CCCC(C)(C)O)C(=O)O[C@@H]1C(OC)=C[C@]23CCCN2CCc2cc4c(cc2[C@H]13)OCO4 [OMA, Omacetaxine mepesuccinate]
OUT: 224

----------
assay: Pharmacokinetics of omacetaxine in orthotopic glioblastoma PDX and naïve NOD/SCID mice (LC-MS/MS of plasma, brain, liver); format: in vivo, mouse; settings: female, NOD/SCID, mouse, plasma, sc, 1.5 mg/kg, GS832-PDX NOD/SCID mice, single s.c. dose 1.5 mg/kg, 30 min (Table 1); read-out: [Plasma] ± SD
measurementLabel: concentration at 30 min (ng/mL)
Response body: numeric value in ng/mL, unit text excluded.

IN: Note concentration at 30 min for the molecule shown: COC(=O)C[C@](O)(CCCC(C)(C)O)C(=O)O[C@@H]1C(OC)=C[C@]23CCCN2CCc2cc4c(cc2[C@H]13)OCO4 [OMA, Omacetaxine mepesuccinate]
OUT: 282

----------
experiment: Pharmacokinetics of omacetaxine in orthotopic glioblastoma PDX and naïve NOD/SCID mice (LC-MS/MS of plasma, brain, liver); assay type: in vivo, mouse; details: female, NOD/SCID, mouse, brain, right hemisphere (tumor bearing), sc, 1.5 mg/kg, GS832-PDX, 240 min, single s.c. dose 1.5 mg/kg, n = 5; read-out: [Brain] ± SD, right hemisphere (tumor bearing)
measurementLabel: concentration at 240 min (ng/g)
Response body: numeric value in ng/g, unit text excluded.

IN: Note concentration at 240 min for the molecule shown: COC(=O)C[C@](O)(CCCC(C)(C)O)C(=O)O[C@@H]1C(OC)=C[C@]23CCCN2CCc2cc4c(cc2[C@H]13)OCO4 [OMA, Omacetaxine mepesuccinate]
OUT: 11.6

----------
assay: Pharmacokinetics of omacetaxine in orthotopic glioblastoma PDX and naïve NOD/SCID mice (LC-MS/MS of plasma, brain, liver); format: in vivo, mouse; conditions: female, NOD/SCID, mouse, sc; plasma, GS832 tumor-bearing mice, single s.c. dose 1.5 mg/kg
measurementLabel: half-life (min)
Response body: numeric value in min, unit text excluded.

IN: Note half-life for the molecule shown: COC(=O)C[C@](O)(CCCC(C)(C)O)C(=O)O[C@@H]1C(OC)=C[C@]23CCCN2CCc2cc4c(cc2[C@H]13)OCO4 [OMA, Omacetaxine mepesuccinate]
OUT: 50

----------
assay: Pharmacokinetics of omacetaxine in orthotopic glioblastoma PDX and naïve NOD/SCID mice (LC-MS/MS of plasma, brain, liver); type: in vivo, mouse; details: female, NOD/SCID, mouse, plasma, sc, 1.5 mg/kg, GS832-PDX, 60 min, single s.c. dose 1.5 mg/kg, n = 5 (Table 2); read-out: [Plasma] ± SD
measurementLabel: concentration at 60 min (ng/mL)
Response body: numeric value in ng/mL, unit text excluded.

IN: Note concentration at 60 min for the compound shown: COC(=O)C[C@](O)(CCCC(C)(C)O)C(=O)O[C@@H]1C(OC)=C[C@]23CCCN2CCc2cc4c(cc2[C@H]13)OCO4 [OMA, Omacetaxine mepesuccinate]
OUT: 186

----------
assay: Pharmacokinetics of omacetaxine in orthotopic glioblastoma PDX and naïve NOD/SCID mice (LC-MS/MS of plasma, brain, liver); format: in vivo, mouse; conditions: female, NOD/SCID, mouse, plasma, sc, 1.5 mg/kg, GS607-PDX, 60 min, single s.c. dose 1.5 mg/kg, n = 2 blood samples; read-out: [Plasma] ± SD
measurementLabel: concentration at 60 min

IN: Note concentration at 60 min for the molecule shown: COC(=O)C[C@](O)(CCCC(C)(C)O)C(=O)O[C@@H]1C(OC)=C[C@]23CCCN2CCc2cc4c(cc2[C@H]13)OCO4 [OMA, Omacetaxine mepesuccinate]
OUT: 88 ng/mL

----------
assay: Pharmacokinetics of omacetaxine in orthotopic glioblastoma PDX and naïve NOD/SCID mice (LC-MS/MS of plasma, brain, liver); assay type: in vivo, mouse; details: female, NOD/SCID, mouse, plasma, sc; GS832 tumor-bearing mice, single s.c. dose 1.5 mg/kg; read-out: time of peak concentration in plasma (converted)
measurementLabel: Tmax (min)
Response body: numeric value in min, unit text excluded.

IN: Note Tmax for the molecule shown: COC(=O)C[C@](O)(CCCC(C)(C)O)C(=O)O[C@@H]1C(OC)=C[C@]23CCCN2CCc2cc4c(cc2[C@H]13)OCO4 [OMA, Omacetaxine mepesuccinate]
OUT: 15

----------
assay: Pharmacokinetics of omacetaxine in orthotopic glioblastoma PDX and naïve NOD/SCID mice (LC-MS/MS of plasma, brain, liver); type: in vivo, mouse; details: female, NOD/SCID, mouse, brain, subcutaneous, 1.5 mg/kg, stated as at 60 min, range across PDX models; read-out: B/P ratio across the PDX models
measurementLabel: Kp at 60 min

IN: Note Kp at 60 min for the compound shown: COC(=O)C[C@](O)(CCCC(C)(C)O)C(=O)O[C@@H]1C(OC)=C[C@]23CCCN2CCc2cc4c(cc2[C@H]13)OCO4 [OMA, Omacetaxine mepesuccinate]
OUT: 0.12 to 0.5

----------
experiment: Pharmacokinetics of omacetaxine in orthotopic glioblastoma PDX and naïve NOD/SCID mice (LC-MS/MS of plasma, brain, liver); assay type: in vivo, mouse; conditions: female, NOD/SCID, mouse, brain, right hemisphere (non-tumor-bearing), sc, 1.5 mg/kg, naïve non-tumor-bearing mice, 60 min, single s.c. dose 1.5 mg/kg, n = 2; read-out: [Brain] ± SD, right hemisphere (non-tumor-bearing)
measurementLabel: concentration at 60 min (ng/g)
Response body: numeric value in ng/g, unit text excluded.

IN: Note concentration at 60 min for the molecule shown: COC(=O)C[C@](O)(CCCC(C)(C)O)C(=O)O[C@@H]1C(OC)=C[C@]23CCCN2CCc2cc4c(cc2[C@H]13)OCO4 [OMA, Omacetaxine mepesuccinate]
OUT: 16.4

----------
experiment: Pharmacokinetics of omacetaxine in orthotopic glioblastoma PDX and naïve NOD/SCID mice (LC-MS/MS of plasma, brain, liver); type: in vivo, mouse; settings: female, NOD/SCID, mouse, brain, sc, 1.5 mg/kg, naïve non-tumor-bearing mice, 60 min, single s.c. dose 1.5 mg/kg; read-out: [Brain]/[Plasma] Ratio ± SD
measurementLabel: Kp at 60 min

IN: Note Kp at 60 min for the molecule shown: COC(=O)C[C@](O)(CCCC(C)(C)O)C(=O)O[C@@H]1C(OC)=C[C@]23CCCN2CCc2cc4c(cc2[C@H]13)OCO4 [OMA, Omacetaxine mepesuccinate]
OUT: 0.05

----------
Test: Pharmacokinetics of omacetaxine in orthotopic glioblastoma PDX and naïve NOD/SCID mice (LC-MS/MS of plasma, brain, liver)
Assay type: in vivo, mouse
Conditions: female, NOD/SCID, mouse, plasma, sc, 1.5 mg/kg, GS832-PDX, 240 min, single s.c. dose 1.5 mg/kg, n = 5 (Table 2); read-out: [Plasma] ± SD
Protocol: An amount of 10 μL medium samples was vortex-mixed with 30 μL of acetonitrile: formic acid (100:1 v/v) containing 100 nM RO-3306 Internal Standard). After centrifugation, the supernatant was 5-fold diluted in water. OMA concentrations were measured using an LC-MS/MS system that consisted of an UltiMate 3000 LC System (Dionex, Sunnyvale, CA, USA) and an API 4000 mass spectrometer (Sciex, Framingham, MA, USA). […]
measurementLabel: concentration at 240 min (ng/mL)
Response body: numeric value in ng/mL, unit text excluded.

IN: Note concentration at 240 min for the compound shown: COC(=O)C[C@](O)(CCCC(C)(C)O)C(=O)O[C@@H]1C(OC)=C[C@]23CCCN2CCc2cc4c(cc2[C@H]13)OCO4 [OMA, Omacetaxine mepesuccinate]
OUT: 23.5
